# credit: patent US8691818B2

- System: 0.4 mm slices of rat hippocampus
- Assay info: tissue or blood
- Assay type: cell-based
- Condition set: Rattus norvegicus; 30 μM; iodoacetate 400 μM insult; slice ATP; read-out: % protection (v 1 μM TTX) (mean ± sem) (no. of expt's)
Emax at 30 µM values for the molecules below.

Molecule | Emax at 30 µM / %
Nc1nnc(-c2cc(C(F)(F)F)cc(C(F)(F)F)c2)c(N)n1 | 32
N=c1nc(N)c(-c2ccccc2Oc2ccccc2)nn1CC(F)(F)F | 11
Nc1cnc(-c2cc(Cl)cc(Cl)c2Cl)c(N)n1 | 98
Nc1nnc(-c2ccccc2OCc2ccccc2)c(N)n1 | 0
Nc1nnc(C(c2ccccc2)c2ccccc2)c(N)n1 | 39
Nc1ncc(-c2cc(Cl)cc(Cl)c2Cl)c(N)n1 [CEN-47, reference compound] | 98
Nc1nnc(-c2cccc(Cl)c2Cl)c(N)n1 [CEN-1, Lamotrigine, reference compound] | 41

----------
Counter-ions that a name gives are not always drawn.

Molecule | melting point
CCn1nc(-c2cc(C(F)(F)F)cc(Cl)c2F)c(N)nc1=N (as salt: mesylate) | 277 to 279 °C
Nc1nnc(-c2cc3ccccc3s2)c(N)n1 | 344 to 345 °C
COc1ccc2cc(OC)c(-c3nnc(N)nc3N)cc2c1 | 274 to 276 °C
Nc1nnc(C2(c3ccc(Cl)cc3)CCCCC2)c(N)n1 | 205 to 207 °C
Nc1cnc(-c2ccc3ccccc3c2)c(N)n1 | 163 to 165 °C

----------
- Tested on: DiHydroFolate Reductase (DHFR) (Rattus norvegicus, UniProt Q920D2)
- Construct: from tissue; host or cells: rat liver homogenate supernatant
- Sequence (Q920D2 whole entry): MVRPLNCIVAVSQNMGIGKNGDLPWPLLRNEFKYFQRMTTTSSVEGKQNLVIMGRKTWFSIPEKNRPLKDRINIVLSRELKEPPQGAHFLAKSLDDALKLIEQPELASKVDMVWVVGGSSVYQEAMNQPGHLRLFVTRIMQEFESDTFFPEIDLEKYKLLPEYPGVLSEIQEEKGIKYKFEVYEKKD
- Assay info: Inhibition of binding of [3H]methotrexate to rat liver homogenate supernatant
- Condition set: 125 μM; read-out: [3H]mtx binding (% inhibition @ 125 μM)
- Method: All steps were carried out at 4° (or on ice). Freshly dissected rat liver was dissected into 0.25M ice-cold Sucrose and subsequently homogenised (U-turrax) in 50 mM pH 6.0 phosphate buffer (10 ml/g tissue) containing 15 mM Dithiothreitol. The resulting homogenate was centrifuged@47,500×g for 20 min and supernatant (filtered through cotton wool to remove fatty lumps) stored @ −80° before use (Rothenberg et al). […]
inhibition at 125 µM values for the compounds below.
Readout name: inhibition at 125 µM

Sample smiles | Result
CCn1nc(-c2cc(OC)c(OC)c(OC)c2)c(N)nc1=N | 52%
Nc1nnc(-c2sccc2Br)c(N)n1 | 6%
Nc1nnc(-c2cccc3c2CCCC3)c(N)n1 | -2%
Nc1nnc(-c2ccccc2Cl)c(-c2ccccc2Cl)n1 | 4%
Cn1nc(C2(c3ccc(Cl)cc3)CCCC2)c(N)nc1=N | 27%
Nc1nnc(C2(c3ccc(Cl)cc3)CC2)c(N)n1 | 13%
Nc1nnc(C(c2ccccc2)(c2ccccc2)c2ccccc2)c(N)n1 | 2%
Nc1nnc(-c2ccc(Oc3ccc(-c4nnc(N)nc4N)cc3)cc2)c(N)n1 | 97%
Nc1nnc(-c2cccc(OC(F)(F)C(F)F)c2)c(N)n1 | 81%
Nc1nnc(-c2ccc3ccccc3n2)c(N)n1 | 34%

----------
- Tested on: DiHydroFolate Reductase (DHFR) (Rattus norvegicus, UniProt Q920D2)
- Construct: from tissue; host or cells: rat liver homogenate supernatant
- Assay info: Inhibition of binding of [3H]methotrexate to rat liver homogenate supernatant
- Condition set: 125 μM; read-out: [3H]mtx binding (% inhibition @ 125 μM)
Structures can show the parent of a compound that is named as a salt.
Criterion met means recorded inhibition at 125 µM is 30% or above; Criterion not met means it is below 30%.

Compound | Classification
Nc1nnc(-c2ccc(Cl)nc2)c(N)n1 [CEN-191] | Criterion met
C/C(=C\c1ccccc1)c1nnc(N)nc1N [CEN-112] | Criterion met
CCCC(CCC)c1nnc(N)nc1N [CEN-170, tosylate] | Criterion not met
Cn1nc(C(C)(c2ccccc2)c2ccccc2)c(N)nc1=N [CEN-149] | Criterion not met
Nc1nnc(C(c2ccccc2)c2ccccc2)c(N)n1 [CEN-130] | Criterion not met
Nc1nnc(-c2ccccc2-c2ccccc2)c(N)n1 [CEN-74] | Criterion met

----------
melting point values for the compounds below.
Where a name gives a salt, the structure may show the parent alone.
Readout name: melting point

Compound | Result
Nc1nnc(-c2cccc(OCc3ccc(Cl)cc3Cl)c2)c(N)n1 [CEN-144] | 164 to 166 °C
Nc1nnc(-c2cc(Cl)ccc2C(F)(F)F)c(N)n1 [CEN-200] | 242 to 243 °C
Nc1nnc(-c2cc(F)c(F)c(F)c2F)c(N)n1 [CEN-208] | 233 to 235 °C
CC(c1ccccc1)(c1ccccc1)c1nnc(N)nc1N [CEN-147] | 197 to 199 °C
Nc1cnc(-c2cccc(Cl)c2Cl)c(N)n1 [CEN-87] | 150 to 153 °C
Nc1nnc(-c2cccs2)c(N)n1 [CEN-57, 3,5-Diamino-6-(2-thienyl)-1,2,4-triazine] | 271 to 272 °C (dec.)
Nc1nnc(-c2cc(Br)c(Br)s2)c(N)n1 [CEN-122] | 318 to 320 °C
Nc1nnc(-c2ccccc2Cl)c(-c2ccccc2Cl)n1 [CEN-132] | 240 to 242 °C
Cn1nc(-c2cccs2)c(N)nc1=N (as salt: methanesulfonate) [CEN-61] | 201 to 202 °C
Nc1nnc(-c2cccc3c2-c2ccccc2C3)c(N)n1 [CEN-129] | 240 to 242 °C
COc1cc2ccccc2cc1-c1nnc(N)nc1N [CEN-139] | 252 to 254 °C
Cn1nc(-c2cc(Br)c(Br)o2)c(N)nc1=N (as salt: methanesulfonate) [CEN-135] | 183 to 185 °C
Nc1nnc(-c2cccc(Oc3ccccc3)c2)c(N)n1 [CEN-84] | 152 to 153 °C
Nc1nnc(-c2c(Cl)cccc2Cl)c(N)n1 [CEN-104] | 160 to 162 °C
Cn1nc(-c2cccc3c2CCCC3)c(N)nc1=N (as salt: methanesulfonate) [CEN-120] | 236 to 237 °C
Cn1nc(-c2cc(Cl)sc2Cl)c(N)nc1=N [CEN-80] | 286 to 288 °C
Nc1nnc(-c2sc(Cl)c(Cl)c2Cl)c(N)n1 [CEN-79] | 263 to 265 °C
CC(C)(C)c1cc(-c2nnc(N)nc2N)cc(C(C)(C)C)c1 [CEN-187] | 278 to 280 °C

----------
- System: Sodium Channel, Site 2
- Assay type: binding, Wistar Rat
- Condition set: 10 μM
Readout name: [3H]BTX-B binding % inhibition (@ 10 μM)

Sample smiles | Result
Nc1nnc(-c2cccc(C(F)(F)F)c2Cl)c(N)n1 | 29%
Cn1nc(-c2cc(C(F)(F)F)cc(Cl)c2F)c(N)nc1=N | 90%
N=c1nc(N)c(-c2cc(C(F)(F)F)cc(Cl)c2F)nn1CC(F)(F)C(F)F.O=S(=O)(O)C(F)(F)F | 43%
CCn1nc(-c2cc(C(F)(F)F)cc(Cl)c2F)c(N)nc1=N | 102%
Cn1nc(-c2cc(F)c(F)cc2Cl)c(N)nc1=N | 52%

----------
Structures can show the parent of a compound that is named as a salt.
Readout name: melting point

Compound | Readout name | Result
Nc1nnc(C2(c3ccc(Cl)cc3)CCCC2)c(N)n1 | melting point | 184 to 186 °C
Cn1nc(-c2ccccc2OC(F)F)c(N)nc1=N (as salt: methanesulfonate) | melting point | 213 to 215 °C
Cc1ccc(-c2nnc(N)nc2-c2ccc(C)cc2)cc1 | melting point | 134 to 136 °C
Cn1nc(-c2ccc(Oc3ccccc3)cc2)c(N)nc1=N (as salt: methanesulfonate) | melting point | 174 to 176 °C
Nc1nnc(-c2ccc(OCc3ccccc3)cc2)c(N)n1 | melting point | 205 to 207 °C
COc1cc(-c2nnc(N)nc2N)c(OC)c2ccccc12 | melting point | 142 to 144 °C
Cn1nc(-c2cccc(C(F)(F)F)c2Cl)c(N)nc1=N | melting point | 205 to 207 °C
Nc1nnc(-c2ccc(F)c(F)c2F)c(N)n1 | melting point | 242 to 243 °C
CCn1nc(-c2sc(Cl)c(Cl)c2Cl)c(N)nc1=N (as salt: methanesulfonate) | melting point | 202 to 204 °C
Nc1nnc(-c2ccc(Cl)s2)c(N)n1 | melting point | 312 to 314 °C
Nc1nnc(-c2ccc(Oc3ccccc3)cc2)c(N)n1 | melting point | 266 to 267 °C
Nc1nnc(-c2ccc3cc(Br)ccc3c2)c(N)n1 | melting point | 260 to 262 °C
Nc1nnc(-c2ccccc2OC(F)F)c(N)n1 | melting point | 154 to 155 °C
COc1cc(OC)cc(-c2nnc(N)nc2N)c1 | melting point | 225 to 228 °C
Cn1nc(-c2cccc(Oc3ccccc3)c2)c(N)nc1=N | melting point | 160 to 161 °C
CCn1nc(-c2cc(OC)c(OC)c(OC)c2)c(N)nc1=N (as salt: methanesulfonate) | melting point | 305 to 306 °C
CS(=O)(=O)c1ccc(-c2nnc(N)nc2N)c(Cl)c1 | melting point | 286 to 288 °C
Cn1nc(-c2ccccc2Oc2ccccc2)c(N)nc1=N | melting point | 164 to 166 °C
Cn1nc(-c2cccc(-c3ccccc3)c2)c(N)nc1=N (as salt: methanesulfonate) | melting point | 180 to 181 °C
Nc1nnc(-c2cc(Cl)sc2Cl)c(N)n1 | melting point | 190 to 192 °C
Nc1nnc(-c2sccc2Br)c(N)n1 | melting point | 215 to 217 °C
